Sourced from paper PMC11053683

Assay: Thermal stability by thermogravimetric analysis (TG)
Type: physicochemical
Experimental: The test was conducted in the 25–1000 °C temperature range at a heating rate of 10 ° min^−1 under air (flow rate of 25 cm^−3min^−1) and nitrogen (flow rate of 10 cm^−3min^−1). The weight of the samples was 5–7 mg.
experimentalReadout: TTGonset (onset of the thermal degradation) (°C)
Write it as a number; the unit °C goes unstated.

Exercise: Sample C=C(C)C1CCC2(C(=O)O)CCC3(C)C(CCC4C5(C)CCC(O)C(C)(C)C5CCC43C)C12.CCOC(=O)C(N)CO (stereo not drawn) [[SerOEt][BA]] — what was its TTGonset (onset of the thermal degradation)?
Solution: 118.2

Exercise: Which value of TTGonset (onset of the thermal degradation) has been reported for C=C(C)C1CCC2(C(=O)O)CCC3(C)C(CCC4C5(C)CCC(O)C(C)(C)C5CCC43C)C12.CCOC(=O)C(N)CS (stereo not drawn) [[CysOEt][BA]] in the records?
Solution: 150.1

Exercise: Could you share which TTGonset (onset of the thermal degradation) value was measured for C=C(C)C1CCC2(C(=O)O)CCC3(C)C(CCC4C5(C)CCC(O)C(C)(C)C5CCC43C)C12.CCOC(=O)C(N)C(C)O (stereo not drawn) [[ThrOEt][BA]] ?
Solution: 109.0

Exercise: Give the measured TTGonset (onset of the thermal degradation) of C=C(C)C1CCC2(C(=O)O)CCC3(C)C(CCC4C5(C)CCC(O)C(C)(C)C5CCC43C)C12.CCOC(=O)C(N)Cc1ccc(O)cc1 (stereo not drawn) [[TyrOEt][BA]] .
Solution: 202.3

Exercise: Look at this molecule and give its reported TTGonset (onset of the thermal degradation). C=C(C)C1CCC2(C(=O)O)CCC3(C)C(CCC4C5(C)CCC(O)C(C)(C)C5CCC43C)C12.CCOC(=O)C(N)CC(C)C (stereo not drawn) [[LeuOEt][BA]]
Solution: 114.9

Exercise: Name the reported TTGonset (onset of the thermal degradation) value associated with the molecule C=C(C)C1CCC2(C(=O)O)CCC3(C)C(CCC4C5(C)CCC(O)C(C)(C)C5CCC43C)C12.CCOC(=O)C(C)N (stereo not drawn) [[AlaOEt][BA]]
Solution: 92.0

---

assay: Estimation of the water solubility (DMSO stock diluted with deionized water until sediment); assay type: physicochemical; design: key: “5×”: weak; “10×”: middle; “20×”:good’; “50×”: very good; “100×”: excellent; conditions: 1 mg in 100 μL DMSO, class by dilution factor
experimentalReadout: Water Solubility

{"compound": "C=C(C)C1CCC2(C(=O)O)CCC3(C)C(CCC4C5(C)CCC(O)C(C)(C)C5CCC43C)C12.C=C(C)C1CCC2(C(=O)O)CCC3(C)C(CCC4C5(C)CCC(O)C(C)(C)C5CCC43C)C12.CCOC(=O)C(N)CCCCN (stereo not drawn) [[LysOEt][BA]2]", "reported": "good"}

---

assay: Estimation of the water solubility (DMSO stock diluted with deionized water until sediment); format: physicochemical; parameters: key: “5×”: weak; “10×”: middle; “20×”:good’; “50×”: very good; “100×”: excellent; conditions: 1 mg in 100 μL DMSO, class by dilution factor

{"compound": "C=C(C)C1CCC2(C(=O)O)CCC3(C)C(CCC4C5(C)CCC(O)C(C)(C)C5CCC43C)C12.CCOC(=O)C(N)CCSC (stereo not drawn) [[MetOEt][BA]]", "Water Solubility": "weak"}
{"compound": "C=C(C)C1CCC2(C(=O)O)CCC3(C)C(CCC4C5(C)CCC(O)C(C)(C)C5CCC43C)C12.CCOC(=O)C(N)C(C)C (stereo not drawn) [[ValOEt][BA]]", "Water Solubility": "weak"}

---

Task for the reader: assign each of the following compounds its reported TDTGmax (maximum decomposition temperature).
assay: Thermal stability by thermogravimetric analysis (TG); type: physicochemical; details: TG, 25–1000 °C, 10 °/min
Give the number; °C is assumed, so skip it.

Exercise: Dear colleague, I am looking for the recorded TDTGmax (maximum decomposition temperature) of the following compound: C=C(C)C1CCC2(C(=O)O)CCC3(C)C(CCC4C5(C)CCC(O)C(C)(C)C5CCC43C)C12.CCOC(=O)C(N)Cc1ccc(O)cc1 (stereo not shown) [[TyrOEt][BA]]
Solution: 354.4

Exercise: Using the record for C=C(C)C1CCC2(C(=O)O)CCC3(C)C(CCC4C5(C)CCC(O)C(C)(C)C5CCC43C)C12.CCOC(=O)C(N)C(C)O (stereo not shown) [[ThrOEt][BA]] , report its TDTGmax (maximum decomposition temperature).
Solution: 353.5

Exercise: Dear colleague, I am looking for the recorded TDTGmax (maximum decomposition temperature) of the following compound: C=C(C)C1CCC2(C(=O)O)CCC3(C)C(CCC4C5(C)CCC(O)C(C)(C)C5CCC43C)C12.CCOC(=O)CC(N)C(=O)OCC (stereo not shown) [[Asp(OEt)2][BA]]
Solution: 357.4

Exercise: Returns the measured TDTGmax (maximum decomposition temperature) for the input compound. Input: C=C(C)C1CCC2(C(=O)O)CCC3(C)C(CCC4C5(C)CCC(O)C(C)(C)C5CCC43C)C12.CCOC(=O)C(N)C(C)CC (stereo not shown) [[IleOEt][BA]]
Solution: 369.0

Exercise: Value lookup for TDTGmax (maximum decomposition temperature); key = C=C(C)C1CCC2(C(=O)O)CCC3(C)C(CCC4C5(C)CCC(O)C(C)(C)C5CCC43C)C12.CCOC(=O)C(C)N (stereo not shown) [[AlaOEt][BA]]
Solution: 370.7

Exercise: So what's the measured TDTGmax (maximum decomposition temperature) for this one? C=C(C)C1CCC2(C(=O)O)CCC3(C)C(CCC4C5(C)CCC(O)C(C)(C)C5CCC43C)C12.CCOC(=O)C(N)Cc1c[nH]c2ccccc12 (stereo not shown) [[TrpOEt][BA]]
Solution: 359.8

Exercise: Any idea what its TDTGmax (maximum decomposition temperature) is? The compound is C=C(C)C1CCC2(C(=O)O)CCC3(C)C(CCC4C5(C)CCC(O)C(C)(C)C5CCC43C)C12.CCOC(=O)C(N)C(C)C (stereo not shown) [[ValOEt][BA]]
Solution: 354.0

Exercise: Please give the measured TDTGmax (maximum decomposition temperature) for this compound: C=C(C)C1CCC2(C(=O)O)CCC3(C)C(CCC4C5(C)CCC(O)C(C)(C)C5CCC43C)C12.CCOC(=O)C(N)CO (stereo not shown) [[SerOEt][BA]]
Solution: 364.1

Exercise: Would you kindly share the measured TDTGmax (maximum decomposition temperature) for C=C(C)C1CCC2(C(=O)O)CCC3(C)C(CCC4C5(C)CCC(O)C(C)(C)C5CCC43C)C12.CCOC(=O)C(N)Cc1ccccc1 (stereo not shown) [[PheOEt][BA]] ?
Solution: 360.1

Exercise: Field request: TDTGmax (maximum decomposition temperature) | item: C=C(C)C1CCC2(C(=O)O)CCC3(C)C(CCC4C5(C)CCC(O)C(C)(C)C5CCC43C)C12.CCOC(=O)C(N)CC(C)C (stereo not shown) [[LeuOEt][BA]]
Solution: 359.4

Exercise: What value of TDTGmax (maximum decomposition temperature) has been recorded for this entry: C=C(C)C1CCC2(C(=O)O)CCC3(C)C(CCC4C5(C)CCC(O)C(C)(C)C5CCC43C)C12.CCOC(=O)C(N)CS (stereo not shown) [[CysOEt][BA]]
Solution: 359.2

Exercise: Sample C=C(C)C1CCC2(C(=O)O)CCC3(C)C(CCC4C5(C)CCC(O)C(C)(C)C5CCC43C)C12.C=C(C)C1CCC2(C(=O)O)CCC3(C)C(CCC4C5(C)CCC(O)C(C)(C)C5CCC43C)C12.CCOC(=O)C(N)CCCCN (stereo not shown) [[LysOEt][BA]2] — what was its TDTGmax (maximum decomposition temperature)?
Solution: 368.8

Exercise: Any idea what its TDTGmax (maximum decomposition temperature) is? The compound is C=C(C)C1CCC2(C(=O)O)CCC3(C)C(CCC4C5(C)CCC(O)C(C)(C)C5CCC43C)C12.CCOC(=O)C1CCCN1 (stereo not shown) [[ProOEt][BA]]
Solution: 372.1

Exercise: Fill in the blank: the reported TDTGmax (maximum decomposition temperature) of C=C(C)C1CCC2(C(=O)O)CCC3(C)C(CCC4C5(C)CCC(O)C(C)(C)C5CCC43C)C12.CCOC(=O)C(N)CCCCN (stereo not shown) [[LysOEt][BA]] is ____.
Solution: 327.3

Exercise: Field request: TDTGmax (maximum decomposition temperature) | item: C=C(C)[C@@H]1CC[C@]2(C(=O)O)CC[C@]3(C)[C@H](CC[C@@H]4[C@@]5(C)CC[C@H](O)C(C)(C)[C@@H]5CC[C@]43C)[C@@H]12 [BA, Betulinic acid]
Solution: 358.7

Exercise: # query: TDTGmax (maximum decomposition temperature) of entry C=C(C)C1CCC2(C(=O)O)CCC3(C)C(CCC4C5(C)CCC(O)C(C)(C)C5CCC43C)C12.CCOC(=O)C(N)CCSC (stereo not shown) [[MetOEt][BA]]
Solution: 358.6
